System: OCI-AML2;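 note: after 48 h exposure read by CellTiter-Glo luminescence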
experiment_notes: cell viability relative to vehicle control; higher = less cytotoxic
test_conditions: 10 µM; SRSF2 genotype: P95H/wt
Counter-ions that a name gives are not always drawn.
property_name: cell viability (%)
Give the number; % is assumed, so skip it.

{"compound": "Cc1cc(C(=O)CN2CCCC2)c(C)n1-c1ccc(F)cc1", "property_name": "cell viability", "recorded_value": 88.4}

## Input Please provide the recorded cell viability for CC[C@]12C=CCN3CC[C@]4(C(=C(C(=O)OC)C1)Nc1ccccc14)[C@@H]32 [Tabersonine] , tested on OCI-AML2.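 Note: after 48 h exposure read by CellTiter-Glo luminescence.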
## Output 7.01

## Input Lab note: need cell viability with OCI-AML2 for entry CC[C@]12C=CCN3CC[C@]4(C(=C(C(=O)OC)C1)Nc1ccccc14)[C@@H]32 [Tabersonine hydrochloride] , please look it up.
## Output 8.35

## Input Look up cell viability with OCI-AML2 for this compound: COC(=O)c1ccccc1C(=O)OC [Dimethyl phthalate]
## Output 89.5

## Input Observed cell viability on OCI-AML2 for `O=C(O)C(=O)CBr` , please.
## Output 94.7

## Input What is its cell viability for OCI-AML2? Entry: CCC(COC(=O)c1cc(OC)c(OC)c(OC)c1)(c1ccccc1)N(C)C (centres undefined) [Trimebutine]
## Output 92.5

## Input API: value(readout=cell viability, system=OCI-AML2) for record `c1cc2c(cc1[C@H]1OC[C@H]3[C@@H]1CO[C@@H]3c1ccc3c(c1)OCO3)OCO2`;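 note: after 48 h exposure read by CellTiter-Glo luminescence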
## Output 100

## Input Lab note: need cell viability for `Cc1cc2c(C(C)C)c(O)c(O)c(C=O)c2c(O)c1-c1c(C)cc2c(C(C)C)c(O)c(O)c(C=O)c2c1O` on OCI-AML2, anyone have it?
## Output 0.59

## Input Form field: cell viability recorded for `COc1cc(C)[nH]c(=O)c1CNC(=O)c1c(C)n([C@H](C)C2CCOCC2)c2ccccc12` with OCI-AML2 (enter value)
## Output 106
